Origin of values: patent US20200354457A1

Would you kindly list koff for each of these binders?
# TARGET_SYSTEM: T1, recombinant human LAG3 Fc Chimera Protein (R&D Systems, 2319-L3) (human, UniProt P18627 23-450)
# T1 construct: Bought reagent
# T1 sequence (looked up): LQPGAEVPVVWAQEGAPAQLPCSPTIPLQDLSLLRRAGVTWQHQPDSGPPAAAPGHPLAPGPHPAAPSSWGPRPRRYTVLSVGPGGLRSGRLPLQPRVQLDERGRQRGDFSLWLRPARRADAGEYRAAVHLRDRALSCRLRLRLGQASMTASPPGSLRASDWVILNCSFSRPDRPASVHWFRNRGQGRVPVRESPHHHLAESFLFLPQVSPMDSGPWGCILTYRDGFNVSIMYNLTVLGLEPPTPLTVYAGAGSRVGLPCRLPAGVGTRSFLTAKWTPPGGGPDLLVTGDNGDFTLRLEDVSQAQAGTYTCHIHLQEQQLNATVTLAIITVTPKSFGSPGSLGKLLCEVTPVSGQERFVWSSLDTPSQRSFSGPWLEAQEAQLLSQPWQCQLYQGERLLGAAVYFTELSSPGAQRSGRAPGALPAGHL
# PROTOCOL_DESCRIPTION: SPR (Biacore), aVH-Fc captured by anti-human Fc, human LAG-3 Fc chimera as analyte, 25 C
Your answer is read as s⁻¹, so omit the unit and give the number.

koff reading for bivalent P9G1 aVH-Fc (Fc fusion) EVQLVESGGGLVQPGGSLRLSCAASGFNIKDTCIGWVRRAPGKGTELVAEICQDIGYTRYADSVKGRFTISADTSKNTAYLQMNSLRAEDTAVYYCAGEEGATNFKYWGQGTTVTVSSGGGGSGGGGSDKTHTCPPCPAPEAAGGPSVFLFPPKPKDTLMISRTPEVTCVVVDVSHEDPEVKFNWYVDGVEVHNAKTKPREEQYNSTYRVVSVLTVLHQDWLNGKEYKCKVSNKALGAPIEKTISKAKGQPREPQVYTLPPSRDELTKNQVSLTCLVKGFYPSDIAVEWESNGQPENNYKTTPPVLDSDGSFFLYSKLTVDKSRWQQGNVFSCSVMHEALHNHYTQKSLSLSPGK : 2e-05

The binder listed as bivalent P21A03 aVH-Fc (Fc fusion) EVQLVESGGGLVQPGGSLRLSCAASGFNIKDTCIGWVRRAPGKGTELVAEICEDIGYTRYADSVKGRFTISADTSKNTAYLQMNSLRAEDTAVYYCAANEHSVGFNYWGQGTTVTVSSGGGGSGGGGSDKTHTCPPCPAPEAAGGPSVFLFPPKPKDTLMISRTPEVTCVVVDVSHEDPEVKFNWYVDGVEVHNAKTKPREEQYNSTYRVVSVLTVLHQDWLNGKEYKCKVSNKALGAPIEKTISKAKGQPREPQVYTLPPSRDELTKNQVSLTCLVKGFYPSDIAVEWESNGQPENNYKTTPPVLDSDGSFFLYSKLTVDKSRWQQGNVFSCSVMHEALHNHYTQKSLSLSPGK shows koff equal to 1e-05
